target: YWHAQ (UniProt P27348); test: log2 fold change, soluble protein after heating vs DMSO (PISA); higher = thermal stabilisation; K562 cells, 10 uM, 30 min; active = over 0.2 and 3.5 SD of the protein, either way, in both replicates (recomputed)
Sequence (P27348 whole entry, looked up): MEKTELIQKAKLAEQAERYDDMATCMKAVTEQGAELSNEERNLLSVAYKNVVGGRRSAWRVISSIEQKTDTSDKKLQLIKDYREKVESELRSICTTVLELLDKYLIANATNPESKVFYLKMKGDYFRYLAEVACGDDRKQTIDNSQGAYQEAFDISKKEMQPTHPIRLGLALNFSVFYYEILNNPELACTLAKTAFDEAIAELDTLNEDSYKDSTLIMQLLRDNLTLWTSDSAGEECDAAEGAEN
About 7,900 targets were measured; listed, in parts, are those with a hit and a random draw of the rest. About 0.6% of all pairs of compound and target were hits.

{"cpd_smiles": "c1cc(OCCN2CCCCC2)cc(-c2n[nH]c3ccc(-c4nnc[nH]4)cc23)c1", "target_or_system": "YWHAQ (UniProt P27348)", "log2 fold change": "0.105 (inactive)"}
{"cpd_smiles": "CC[C@@H]1C(=O)N(C)c2cnc(Nc3ccc(C(=O)N[C@H]4CC[C@H](N5CCN(CC6CC6)CC5)CC4)cc3OC)nc2N1C(C)C", "target_or_system": "YWHAQ (UniProt P27348)", "log2 fold change": "-0.073 (inactive)"}
{"cpd_smiles": "C[C@@H](Oc1cc(-c2cnn(C3CCNCC3)c2)cnc1N)c1c(Cl)ccc(F)c1Cl", "target_or_system": "YWHAQ (UniProt P27348)", "log2 fold change": "0.026 (inactive)"}
{"cpd_smiles": "CCCS(=O)(=O)Nc1ccc(F)c(C(=O)c2c[nH]c3ncc(Cl)cc23)c1F", "target_or_system": "YWHAQ (UniProt P27348)", "log2 fold change": "0.233 (inactive)"}
